# Test system: CRF-dependent cAMP production in AtT-20 cells
# Assay Remarks: cAMP production inhibition experiment using AtT-20 cells
# Format: cell-based
# Conditions: Mus musculus, AtT20, 30 nM CRF, intracellular cAMP by HTRF, read-out: Adenylate cyclase activity IC50
pIC50: −log10 of the molar value.
Recorded Metric: pIC50

Input: If you can, please state the reported pIC50 value of CCCN(CCC)c1c(CC)nn2c(-c3ccc(OC)cc3Cl)cccc12 .
Output: 6.89

A = CCCN(CCC)c1c(SC)nn2c(-c3ccc(Cl)cc3Cl)cccc12
B = COCCN(CC(C)C)c1c(SC)nn2c(-c3c(C)cc(C)cc3OC)cccc12
C = CCCN(CCC)c1c(CC)nn2c(-c3ccc(OC)cc3OC)cccc12
Input: Exam item: list the entries in increasing order of pIC50. Thanks in advance for listing the labels in the requested order.
Output: A, C, B
(A: 6.40, C: 6.70, B: 7.70)

I = CCCN(CCOC)c1c(CC)nn2c(-c3ccc(Cl)cc3Cl)cccc12
II = CCc1nn2c(-c3ccc(Cl)cc3Cl)cccc2c1N(CCOC)CC(C)C
Input: API: POST /compare with I and II ; response names the item with higher pIC50. # answer = label of selected item
Output: II
(II: 6.52, I: 6.26)
